Assay: soluble on expression in E. coli; label from the status in PepcDB or PDB records

sequenceEntry: MSLNGLNSECHFYQTDGDIVVRCAQINDAERLSQYFVDNRSHLIEWEPRREAEFFTESGWLQRLIKLNELHKMKLGYYLLILDAQNDAMLGTISFSNIIRFPFHACNVGYSLAYEAQGKGIMTRALTMACQYMFSEHNMHRIMASYIPHNKRSENVLKRVGFVLEGHAKDYLLINGKWEDHNLTSLINPNWKEEGHHHHHH
soluble on expression in E. coli: soluble
//
sequenceEntry: SLSCRKEQGKFYDHLLRDCISCASICGQHPKQCAYFCENKLR
soluble on expression in E. coli: soluble

====

Test: soluble on expression in E. coli; label from the status in PepcDB or PDB records

sequenceEntry: MGSDKIHHHHHHMVQLIKKYEDLLCLLDELIKNESTFRWDEFYLERERDVPFFVLAPDEQLVEYVCTGLIESGKVLELGCGPGRNAIYLAENHFEVDVVDLSQKAIDWAMDRANERKASIRFIRENIFNLNVNKASYDLVYDSGCFHHIPPHRRMDYIHLVTTALKPGGHFGLTCFIENGPLGGAAISDLDVYRQQSLQGGLGFTEQKLIQIFDDFAVIEIRKMKEYPNDSSRFGVNGLLTALFQKKKVEKVK
soluble on expression in E. coli: not soluble
//
sequenceEntry: MQQQETFRHILSVLVQDVDGIISRVSAMFTRRSFSLVSFVSGKTEMHGINRITIVVDASTQDIEQITKQLNKLIPVLKVVRLDEDVTVARALMLVKVSADASNRPQVVDAAKIFRAHVVDVAPDSVVIEATGNKGKLRALLDVLEPFGIRELISSGQIALNRGSKTMAPQSSRS
soluble on expression in E. coli: not soluble

====

Test: soluble on expression in E. coli; label from the status in PepcDB or PDB records

sequenceEntry: GKDAHVILRSNFTLSKNKILNWEDTKKPYTYLENNGYANNVQRGFVAMGLFKDQQDVEMSPTQFGTVRPGDIKYRDINGDGKITDDDKVPLFAYSGVPQLMYGIGAEFRYKSWTLNVLFKGTGRNKFLYGGSDGRNFDGYMPFNQKDKGNIMTIAYNPENRWISAEYSGNQATENPNARFPRLYYGKNENNTKPSTFWMGDARYLRLQELSLAYNLKVPALQRILGINSMNIQLMCENLAVWDSVNIFDPEQATSCGQAYPLPARYSLQLYLNF
soluble on expression in E. coli: not soluble
//
sequenceEntry: MSSIVEHVVLFKLNDDDVDSGKINSMVNGINELVNLDQVLHLYCGSIHRLITTTASDFTHVLHSRYRSKEDLNAYAIHPDHVRVVKESESIREDIMAVDWIAEQAPE
soluble on expression in E. coli: not soluble
//
sequenceEntry: ATHEVHMLNKGESGAMVFEPAFVRAEPGDVINFVPTDKSHNVEAIKEILPEGVESFKSKINESYTLTVTEPGLYGVKCTPHFGMGMVGLVQVGDAPENLDAAKTAKMPKKARERMDAELAQVN
soluble on expression in E. coli: soluble
//
sequenceEntry: MSVAETEIPIPAATPSLTDACVHCGFCLSDCPSYRVLGRETDSPRGRVYLMDSLQQGRIELSDTVVEHFDTCLGCLACTSACPSGVQYDQLIEEMRQRIAQEHRRPWPEAIWRKLLEHHHHHH
soluble on expression in E. coli: not soluble
//
sequenceEntry: MSLKIVSFQDTKQNTGMESAEISEELNKLSKEKSDLQKKVNELQSQVKGYQNAAASSGSMNKQIVNELNTSNMLIGSVDVTGPGIILVITPQNISSSTNNSTGQNNDVITGEDLLYLINELNFSQAEAISINDVRITSMTGIRSSSGGSDIFVGDDRISPYEKITIKAIGDSKLLYSALSYPGVLSSVPSGYKADYDKYGSIKIGKTNKVIKFDYAKPISKEGHHHHHH
soluble on expression in E. coli: soluble
//
sequenceEntry: MSLNMKTFKFFTALFATAILTACTLDMERPTNVQYIDKTDAIWQQHLQKIQKIQSYQAKGQIGYISPTERFSSRFEWQYQNPKSYTLKLYSLISKSTLWIQMHQSGMTISDNNGNQQSAANSKLLLQEIIGMDVPLEHLAYWLKGQPAMNADYQVGTNHLLGAFTYHVDGSQWTADYLTYHSNNSMPENILLKNDSTKQTLKIRVDEWIYEGGSHHHHHH
soluble on expression in E. coli: soluble
//
sequenceEntry: MKIAIASGKGGTGKTTVAVNLALALEEVQLFDCDVEEPNCNLFLGFEMEPVEEVVFLVPEINPDKCTLCRGCSDFCRYNALAAIPNRILSFPSLCHGCGGCSFVCPAGAIEEKPETIGIIQKALSDSPLTFFCGTLKIGKATATPVIKSLQNHIDESRPAIIDSPPGTACPVLAVMGFADYCVLVTESTPFGFHDFCLALEAARALNVPVGVVLNRDGLGDSRVEDFCRAEGIPILLRIPNDRTIARLYSEGIPFVKEMPEWKKQFKDMFETIKTGLYESKGVQLEHHHHHH
soluble on expression in E. coli: not soluble
//
sequenceEntry: MSFKGFKVVMLILLSTQSYASKLASSIVCDSTIENPCIVQDSKTQFSPVIRYREVASIADVYGGNITGINKFHLSGSEQPSEKGWEAIAESISRKMGAETKKVIVLDLRQESHGYLNGRAITLVSAYNWINLGKSNSQSTLDQENWLAGLRSRKIVNGVLTVPQYVAKQYSQGKSMVVSTVKNEEYYVYKKGFDYYRIFISDHRAPLDSEVDALVALIKNNPEDTWYHVHCRGGKGRTTTVFAMFDMLKNADKVSFEEIIARQASIPPFYNLMVTNREIPELTPYYEQRLQFLIHFYEFARQSLMGYSGTWSEWKKLNI
soluble on expression in E. coli: not soluble
//
sequenceEntry: MKCSKCGREAIYFARYEGRYYCHKHFNELVEGKVKRTIRKYRMIKRGEKVGVAVSGGKDSVVLMHILAKLRKKFPFELVAITIDEGIKGYRDKSVEVARKNAELLGVEHHIYRFKDFIGFTLDETVEIMGPREERVGACSYCGVWRRWLLNKAAEELGVDKLALGLNLDDEVQVFLMNLMRGDVARLGRTGPYYEVIHEGLVPRIKPLREVPEKEIVLYAVLNNIEVDLSECPYATEAFRAEIRDWLNEMEEKHPGTKYQLLRSYDKIFPLLAKTYAKEVKLNRCKICGQPTSGEICKACQFRLQVKEKSENLKFSLTK
soluble on expression in E. coli: not soluble
//
sequenceEntry: MSTQVQDRIHDRRELTAVLLRALEQRHEVLDAIVDSEDHAEALTTVAGLLDTSEAYAEAVLNLTFRRLTKVERLRIQTELKDLDATLEWTSTDRPASTGRNFRLRPFTDTEEDAELFRRRCGEQVDDAGAQWSEDRVEKERTEGLSRVDDESAAWFVCEDTAENTAVGMVFGELSGREVDVAIWIAPDARKKGYGTAAVKHSRQELAAEFPGTVLVVR
soluble on expression in E. coli: not soluble
//
sequenceEntry: MQSWKERRDFNIVKQDLDFSCGAASVVTLLNNFYGQKLTEEDVLKKLDKEQMPASFEDMRRIMPDLGFEAKGYALSFEQLAQLQIPVIVYLKYRKDDHFSVLRGIDGNTVLLADPSLGHVSMSRAQFLDAWQTREGNLAGKILAVVPKGRDAGGDKAFFTRSPKRQTEFAVGQVKWWRAY
soluble on expression in E. coli: not soluble
//
sequenceEntry: MKAVSPVRPSGRKAPSGCGGGELALRCLAEHGHSLGGSAAAAAAAAAARCKAAEAAADEPALCLQCDMNDCYSRLRRLVPTIPPNKKVSKVEILQHVIDYILDLQLALETHPALLRQPPPPAPPHHPAGTCPAAPPRTPLTALNTDPAGAVNKQGDSILCR
soluble on expression in E. coli: soluble
//
sequenceEntry: MLTEKTKKELIRLSKVNNYIIKVETNQNFKHQSKCGDQILFQIIETNNGKFNLKHHASGCIVLLASANALNKLCNNKAKSEILNLVQKVINSNFANLDEIDVSLKIFNVFTNTNRKDCFLLPYKSLKDSLESYKPLRRTIRLEHHHHHH
soluble on expression in E. coli: not soluble

====

Test: soluble on expression in E. coli; label from the status in PepcDB or PDB records
resultType: soluble on expression in E. coli

sequenceEntry: MVKESGMASLLLENPYYGYRKPKDQLRSSLKNVSDLFVMGGALILESAALLHWLERDGFWPLGMTGISMGGHMASLAVTNWPKPIPLIPCLSWTTASSVFTTGVLSRAVNWRELEKQYATHTVYEEEIISMLEYCGTDSFRMGQEFVKNAPGSFDGLDLTQELLQSGQQVALRSSYSGRPASDQDSSVLMGRRERDGLDQMLSAVSSSAPHLDMLHAKSIACGSGQRQSLQRESLCFMKGVMDECTHIANFSVPVDPSLIIIVQAKEDAYVPRTGVRSLQEIWPGCEVRYLNGGHISAYLFKQGLFRQAIYDAYDRFLHKYSSL
assayResult: soluble
--
sequenceEntry: MRGSHHHHHHGIRMRARYPAFSVNYDSSFGGYSIHDYLGQWASTFGDVNHTNGNVTDANSGGFYGGSLSGSQYAISSTANQVTAFVAGGNLTYTLFNEPAHTLYGQLDSLSFGDGLSGGDTSPYSIQVPDVSFGGLNLSSLQAQGHDGVVHQVVYGLMSGDTGALETALNGILDDYGLSVNSTFDQVAAATAVGVQHADSPELLAA
assayResult: soluble
